molecular target: UniProt Q13464
Sequence (Q13464 whole entry, species assumed): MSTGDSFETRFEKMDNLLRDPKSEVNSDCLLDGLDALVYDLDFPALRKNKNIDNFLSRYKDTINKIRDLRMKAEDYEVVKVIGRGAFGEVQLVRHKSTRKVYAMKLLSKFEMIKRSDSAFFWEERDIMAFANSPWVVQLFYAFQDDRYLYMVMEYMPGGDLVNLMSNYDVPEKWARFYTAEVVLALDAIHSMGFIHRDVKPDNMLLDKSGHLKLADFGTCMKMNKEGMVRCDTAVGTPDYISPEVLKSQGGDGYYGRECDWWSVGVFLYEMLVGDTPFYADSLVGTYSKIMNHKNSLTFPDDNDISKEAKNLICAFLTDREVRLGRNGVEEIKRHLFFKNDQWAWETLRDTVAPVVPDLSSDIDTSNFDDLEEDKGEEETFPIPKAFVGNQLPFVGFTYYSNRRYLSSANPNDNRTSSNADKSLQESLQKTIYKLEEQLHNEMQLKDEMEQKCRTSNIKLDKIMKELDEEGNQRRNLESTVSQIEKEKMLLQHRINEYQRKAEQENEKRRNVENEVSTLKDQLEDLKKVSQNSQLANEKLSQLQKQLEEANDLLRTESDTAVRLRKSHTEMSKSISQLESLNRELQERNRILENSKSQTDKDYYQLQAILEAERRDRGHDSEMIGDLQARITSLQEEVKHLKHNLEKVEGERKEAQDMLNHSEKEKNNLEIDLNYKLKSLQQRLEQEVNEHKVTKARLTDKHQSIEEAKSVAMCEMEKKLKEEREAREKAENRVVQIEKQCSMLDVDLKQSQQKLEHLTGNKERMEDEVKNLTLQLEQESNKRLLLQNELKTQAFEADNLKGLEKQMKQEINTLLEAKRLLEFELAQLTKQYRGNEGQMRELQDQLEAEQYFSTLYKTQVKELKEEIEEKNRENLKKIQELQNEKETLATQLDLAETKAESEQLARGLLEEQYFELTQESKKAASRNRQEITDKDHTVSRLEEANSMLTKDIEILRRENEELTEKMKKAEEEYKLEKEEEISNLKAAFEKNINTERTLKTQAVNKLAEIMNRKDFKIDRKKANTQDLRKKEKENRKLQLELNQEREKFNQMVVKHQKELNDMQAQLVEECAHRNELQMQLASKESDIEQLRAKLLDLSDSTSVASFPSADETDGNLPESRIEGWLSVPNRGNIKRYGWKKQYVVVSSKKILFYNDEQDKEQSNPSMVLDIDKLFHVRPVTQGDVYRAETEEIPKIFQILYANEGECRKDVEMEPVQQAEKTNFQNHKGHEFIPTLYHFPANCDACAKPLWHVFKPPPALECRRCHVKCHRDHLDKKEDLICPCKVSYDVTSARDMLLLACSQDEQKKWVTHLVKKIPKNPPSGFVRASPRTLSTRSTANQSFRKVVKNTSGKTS
I'd appreciate it if you could supply pIC50 values for the items below.
Answers are plain numbers, as −log10 of the molar value.

N[C@H](CCc1ccccc1)C(=O)Nc1ccc(-c2cn[nH]c2)cc1 = 7.37
COc1cc(NC(=O)[C@H](N)Cc2ccccc2Cl)ccc1-c1cn[nH]c1 = 7.86
COc1cc(NC(=O)[C@H](N)CCc2ccccc2)ccc1-c1c[nH]nc1C = 6.63
COc1cc(NC(=O)[C@H](N)Cc2ccc3ccccc3c2)ccc1-c1cn[nH]c1 = 8.06
COc1cc(NC(=O)[C@H](N)Cc2cc(F)cc(F)c2)ccc1-c1cn[nH]c1 = 7.90

Record pIC50 per entry; entries follow.
1. O=C(Cc1ccccc1Cl)Nc1ccc(-c2cn[nH]c2)cc1
2. CN(C)CCOc1cc(-c2cn[nH]c2)c(F)cc1NC(=O)[C@H](N)CCc1ccccc1

output:
[7.71, 6.06]
